test system: SN12C renal; assay: NCI tumour cell line growth inhibition, 48 h

[
  {
    "Molecule": "CCCCCCCC(=O)OC(COC(=O)Cc1ccccc1)COC(=O)C(C)(C)C (stereo unspecified)",
    "Qual": ">",
    "TGI, µM": 100
  },
  {
    "Molecule": "COc1cc2cnc3c4cc(O)ccc4ccc3c2cc1OC",
    "Qual": ">",
    "TGI, µM": 100
  },
  {
    "Molecule": "C[n+]1ccc2/c(=C\\C#N)c3ccccc3n21",
    "Qual": ">",
    "TGI, µM": 100
  },
  {
    "Molecule": "CN(CCCNC(=O)c1cn(C)c2c1ccc1ccccc12)CCCNC(=O)c1cn(C)c2c1ccc1ccccc12",
    "Qual": "=",
    "TGI, µM": 2.71
  },
  {
    "Molecule": "O=C1/C(=C/c2cccc([N+](=O)[O-])c2)Cc2ccccc21",
    "Qual": ">",
    "TGI, µM": 100
  },
  {
    "Molecule": "O=C(/C=C/c1ccc(O)c(O)c1)c1ccc(O)cc1O",
    "Qual": "=",
    "TGI, µM": 43.9
  },
  {
    "Molecule": "Cc1cc2nc3c(C#N)c4c(c(Cl)n3c2cc1C)CCC4",
    "Qual": "=",
    "TGI, µM": 33.8
  },
  {
    "Molecule": "c1ccc(N2CCN(CCCN3CCc4c([nH]c5ccccc45)C3c3cccnc3)CC2)cc1 (stereo unspecified)",
    "Qual": "=",
    "TGI, µM": 99.2
  },
  {
    "Molecule": "CCOC(=O)C(CCSC)(CCSC)C(=O)OCC",
    "Qual": ">",
    "TGI, µM": 100
  },
  {
    "Molecule": "CC1=C(C(=O)Nc2ccccc2C)C(c2ccccc2O)C(C(=O)Nc2ccccc2C)=C(C)N1",
    "Qual": "=",
    "TGI, µM": 44
  },
  {
    "Molecule": "O=C(C(=O)c1cccnc1)c1cccnc1",
    "Qual": ">",
    "TGI, µM": 100
  }
]

----------
tested on: SK-MEL-28 melanoma; test: NCI tumour cell line growth inhibition, 48 h
Mark condition not met for TGI values under 30 µM, and condition met for everything at or above.

[
  {
    "Compound": "O=C(Nc1cccc(-n2ccc3c(NC(=O)c4ccccc4)nccc32)c1)c1ccc(Cl)c(Cl)c1",
    "Assigned Label": "condition not met"
  },
  {
    "Compound": "Cc1cnc(-c2ccc(-c3ccc(NC(=O)Nc4cccc(C(F)(F)F)c4)cc3F)c3c2C(=O)NC3)[nH]1",
    "Assigned Label": "condition met"
  },
  {
    "Compound": "CN(CCO)c1nc(=O)c2c(n1C1OC(CO)C(O)C(O)C1O)CCCC2 (configuration not stated)",
    "Assigned Label": "condition met"
  },
  {
    "Compound": "CCCC1(N2C(=O)c3ccc4c5c(ccc(c35)C2=O)N(C2(CCC)CCCCC2)C4=O)CCCCC1",
    "Assigned Label": "condition met"
  },
  {
    "Compound": "O=C1c2c(c3c4ccccc4n(CCCCCCN4CCOCC4)c3c3[nH]c4ccccc4c23)C(=O)N1O",
    "Assigned Label": "condition not met"
  },
  {
    "Compound": "CC(NNC(=S)N1CCCC1)c1cccnn1 (configuration not stated)",
    "Assigned Label": "condition met"
  },
  {
    "Compound": "Cc1c(C(=O)/C=C/c2ccc(Cl)cc2)nnn1-c1ccnc2c(C(F)(F)F)cccc12",
    "Assigned Label": "condition met"
  },
  {
    "Compound": "CSc1nc(SC)c2c(C)c(Br)[nH]c2n1",
    "Assigned Label": "condition met"
  },
  {
    "Compound": "CCCCCCCCCCCCCP(=O)(OC)OC",
    "Assigned Label": "condition met"
  }
]

Hey, just so you know, these numbers are from PubChem BioAssay (NCI).
